Recorded values, source the supplement of paper PMC11316812.

# Test system: hTERT-HMEC
# ASSAY SUMMARY: percentage of EdU-negative (G0-arrested) nuclei per well, 72 h; higher = more G0 arrest;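 also: secreted proteins added to cultured cells, EdU pulse at the end, nuclei found by Hoechst imaging, EdU status from nuclear versus surrounding ring intensity ratio, PBS as neutral control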
# COND: protein concentration 0.0225 µM; reference: sequence is the full UniProt precursor, the tested protein was the secreted form or ectodomain
MEASURED ATTRIBUTE: percentage of EdU-negative (%)
Just the number please, in %, no unit attached.

Fill in percentage of EdU-negative for record MQCWQQPFLRFLQQPFFLATASLAGSSSSFNVLIPKRDEDGDGEGPGDVTAGVSRAAGSPSGWEAPWVQQPRCCRRATPVCCAGQGPPRSLQQGGSEVLLGQLCSPEPDWLPSSGPKVAKQVFQVAAELLQHPEHFVPSSVPEGCVHKPGSTCDGSLKGRAYPSCVPKRDPEHSREESHPLSG [Q6UXR6] 4.87

Fill in percentage of EdU-negative for record MTVLAPAWSPTTYLLLLLLLSSGLSGTQDCSFQHSPISSDFAVKIRELSDYLLQDYPVTVASNLQDEELCGGLWRLVLAQRWMERLKTVAGSKMQGLLERVNTEIHFVTKCAFQPPPSCLRFVQTNISRLLQETSEQLVALKPWITRQNFSRCLELQCQPDSSTLPPPWSPRPLEATAPTAPQPPLLLLLLLPVGLLLLAAAWCLHWQRTRRRTPRPGEQVPPVPSPQDLLLVEH 5

Fill in percentage of EdU-negative for record MARYMLLLLLAVWVLTGELWPGAEARAAPYGVRLCGREFIRAVIFTCGGSRWRRSDILAHEAMGDTFPDADADEDSLAGELDEAMGSSEWLALTKSPQAFYRGRPSWQGTPGVLRGSRDVLAGLSSSCCKWGCSKSEISSLC [Q8WXF3] 4.41

Fill in percentage of EdU-negative for record MKKFFTVAILAGSVLSTAHGSLLNLKAMVEAVTGRSAILSFVGYGCYCGLGGRGQPKDEVDWCCHAHDCCYQELFDQGCHPYVDHYDHTIENNTEIVCSDLNKTECDKQTCMCDKNMVLCLMNQTYREEYRGFLNVYCQGPTPNCSIYEPPPEEVTCSHQSPAPPAPP [Q9BZM2] 5.18

Fill in percentage of EdU-negative for record MKRLVCVLLVCSSAVAQLHKDPTLDHHWHLWKKTYGKQYKEKNEEAVRRLIWEKNLKFVMLHNLEHSMGMHSYDLGMNHLGDMTSEEVMSLMSSLRVPSQWQRNITYKSNPNRILPDSVDWREKGCVTEVKYQGSCGACWAFSAVGALEAQLKLKTGKLVSLSAQNLVDCSTEKYGNKGCNGGFMTTAFQYIIDNKGIDSDASYPYKAMDQKCQYDSKYRAATCSKYTELPYGREDVLKEAVANKGPVSVGVDARHPSFFLYRSGVYYEPSCTQNVNHGVLVVGYGDLNGKEYWLVKNSWGHNFGEEGYIRMARNKGNHCGIASFPSYPEI 4.72

====

# Test system: MCF7
# ASSAY SUMMARY: percentage of EdU-negative (G0-arrested) nuclei per well, 72 h; higher = more G0 arrest
# COND: protein concentration 0.225 µM; reference: sequence is the full UniProt precursor, the tested protein was the secreted form or ectodomain
MEASURED ATTRIBUTE: percentage of EdU-negative (%)
Just the number please, in %, no unit attached.

Fill in percentage of EdU-negative for record MRGTPGDADGGGRAVYQSMCKPITGTINDLNQQVWTLQGQNLVAVPRSDSVTPVTVAVITCKYPEALEQGRGDPIYLGIQNPEMCLYCEKVGEQPTLQLKEQKIMDLYGQPEPVKPFLFYRAKTGRTSTLESVAFPDWFIASSKRDQPIILTSELGKSYNTAFELNIND [Q9NZH8] 23

Fill in percentage of EdU-negative for record MRKMNTLLLVSLSFLYLKEVMGLKCNTCIYTEGWKCMAGRGTCIAKENELCSTTAYFRGDKHMYSTHMCKYKCREEESSKRGLLRVTLCCDRNFCNVF [P0C8F1] 27.4

Fill in percentage of EdU-negative for record MRRLLIPLALWLGAVGVGVAELTEAQRRGLQVALEEFHKHPPVQWAFQETSVESAVDTPFPAGIFVRLEFKLQQTSCRKRDWKKPECKVRPNGRKRKCLACIKLGSEDKVLGRLVHCPIETQVLREAEEHQETQCLRVQRAGEDPHSFYFPGQFAFSKALPRS 26.6

Fill in percentage of EdU-negative for record MQLTRCCFVFLVQGSLYLVICGQDDGPPGSEDPERDDHEGQPRPRVPRKRGHISPKSRPMANSTLLGLLAPPGEAWGILGQPPNRPNHSPPPSAKVKKIFGWGDFYSNIKTVALNLLVTGKIVDHGNGTFSVHFQHNATGQGNISISLVPPSKAVEFHQEQQIFIEAKASKIFNCRMEWEKVERGRRTSLCTHDPAKICSRDHAQSSATWSCSQPFKVVCVYIAFYSTDYRLVQKVCPDYNYHSDTPYYPSG 31.8

====

For each entry below, report its percentage of EdU-negative value.
# Tested on: hTERT-HMEC
# ASSAY SUMMARY: percentage of EdU-negative (G0-arrested) nuclei per well, 72 h; higher = more G0 arrest
# COND: protein concentration 0.0225 µM; reference: sequence is the full UniProt precursor, the tested protein was the secreted form or ectodomain
Just the number please, in %, no unit attached.

Fill in percentage of EdU-negative for record MAGSPTCLTLIYILWQLTGSAASGPVKELVGSVGGAVTFPLKSKVKQVDSIVWTFNTTPLVTIQPEGGTIIVTQNRNRERVDFPDGGYSLKLSKLKKNDSGIYYVGIYSSSLQQPSTQEYVLHVYEHLSKPKVTMGLQSNKNGTCVTNLTCCMEHGEEDVIYTWKALGQAANESHNGSILPISWRWGESDMTFICVARNPVSRNFSSPILARKLCEGAADDPDSSMVLLCLLLVPLLLSLFVLGLFLWFLKRERQEEYIEEKKRVDICRETPNICPHSGENTEYDTIPHTNRTILKEDPANTVYSTVEIPKKMENPHSLLTMPDTPRLFAYENVI [Q9NQ25] 5

Fill in percentage of EdU-negative for record MDRRSRAQQWRRARHNYNDLCPPIGRRAATALLWLSCSIALLRALATSNARAQQRAAAQQRRSFLNAHHRSGAQVFPESPESESDHEHEEADLELSLPECLEYEEEFDYETESETESEIESETDFETEPETAPTTEPETEPEDDRGPVVPKHSTFGQSLTQRLHALKLRSPDASPSRAPPSTQEPQSPREGEELKPEDKDPRDPEESKEPKEEKQRRRCKPKKPTRRDASPESPSKKGPIPIRRH 3.95

Fill in percentage of EdU-negative for record MSVMKPCLMTIAILMILAQKTPGGLFRSHNGKSREPWNPCELYQGMCRNACREYEIQYLTCPNDQKCCLKLSVKITSSKNVKEDYDSNSNLSVTNSSSYSHI [Q30KQ4] 5.55

Fill in percentage of EdU-negative for record MDYPTLLLALLHVYRALCEEVLWHTSVPFAENMSLECVYPSMGILTQVEWFKIGTQQDSIAIFSPTHGMVIRKPYAERVYFLNSTMASNNMTLFFRNASEDDVGYYSCSLYTYPQGTWQKVIQVVQSDSFEAAVPSNSHIVSEPGKNVTLTCQPQMTWPVQAVRWEKIQPRQIDLLTYCNLVHGRNFTSKFPRQIVSNCSHGRWSVIVIPDVTVSDSGLYRCYLQASAGENETFVMRLTVAEGKTDNQYTLFVAGGTVLLLLFVISITTIIVIFLNRRRRRERRDLFTESWDTQKAPNNYRSPISTSQPTNQSMDDTREDIYVNYPTFSRRPKTRV 4.86

Fill in percentage of EdU-negative for record MAQYLSTLLLLLATLAVALAWSPKEEDRIIPGGIYNADLNDEWVQRALHFAISEYNKATKDDYYRRPLRVLRARQQTVGGVNYFFDVEVGRTICTKSQPNLDTCAFHEQPELQKKQLCSFEIYEVPWENRRSLVKSRCQES 5.26

Fill in percentage of EdU-negative for record MDLSLLWVLLPLVTMAWGQYGDYGYPYQQYHDYSDDGWVNLNRQGFSYQCPQGQVIVAVRSIFSKKEGSDRQWNYACMPTPQSLGEPTECWWEEINRAGMEWYQTCSNNGLVAGFQSRYFESVLDREWQFYCCRYSKRCPYSCWLTTEYPGHYGEEMDMISYNYDYYIRGATTTFSAVERDRQWKFIMCRMTEYDCEFANV 5.38

====

For each entry below, report its percentage of EdU-negative value.
# Test system: hTERT-HMEC
# ASSAY SUMMARY: percentage of EdU-negative (G0-arrested) nuclei per well, 72 h; higher = more G0 arrest
# COND: protein concentration 0.0225 µM; reference: sequence is the full UniProt precursor, the tested protein was the secreted form or ectodomain
# answer = value followed by unit

Using hTERT-HMEC as the test system, report measured percentage of EdU-negative of MKLKLKNVFLAYFLVSIAGLLYALVQLGQPCDCLPPLRAAAEQLRQKDLRISQLQAELRRPPPAPAQPPEPEALPTIYVVTPTYARLVQKAELVRLSQTLSLVPRLHWLLVEDAEGPTPLVSGLLAASGLLFTHLVVLTPKAQRLREGEPGWVHPRGVEQRNKALDWLRGRGGAVGGEKDPPPPGTQGVVYFADDDNTYSRELFEEMRWTRGVSVWPVGLVGGLRFEGPQVQDGRVVGFHTAWEPSRPFPVDMAGFAVALPLLLDKPNAQFDSTAPRGHLESSLLSHLVDPKDLEPRAANCTRVLVWHTRTEKPKMKQEEQLQRQGRGSDPAIEV . 6.2%

Using hTERT-HMEC as the test system, report measured percentage of EdU-negative of MAAQGCAASRLLQLLLQLLLLLLLLAAGGARARWRGEGTSAHLRDIFLGRCAEYRALLSPEQRNKNCTAIWEAFKVALDKDPCSVLPSDYDLFINLSRHSIPRDKSLFWENSHLLVNSFADNTRRFMPLSDVLYGRVADFLSWCRQKNDSGLDYQSCPTSEDCENNPVDSFWKRASIQYSKDSSGVIHVMLNGSEPTGAYPIKGFFADYEIPNLQKEKITRIEIWVMHEIGGPNVESCGEGSMKVLEKRLKDMGFQYSCINDYRPVKLLQCVDHSTHPDCALKSAAAATQRKAPSLYTEQRAGLIIPLFLVLASRTQL . 5.33%

Using hTERT-HMEC as the test system, report measured percentage of EdU-negative of MRPLLCALTGLALLRAAGSLAAAEPFSPPRGDSAQSTACDRHMAVQRRLDVMEEMVEKTVDHLGTEVKGLLGLLEELAWNLPPGPFSPAPDLLGDGF [Q5JTB6] . 4.3%
